molecular target: 5-HT6 (Homo sapiens, UniProt P50406)
Sequence (P50406 whole entry, species assumed): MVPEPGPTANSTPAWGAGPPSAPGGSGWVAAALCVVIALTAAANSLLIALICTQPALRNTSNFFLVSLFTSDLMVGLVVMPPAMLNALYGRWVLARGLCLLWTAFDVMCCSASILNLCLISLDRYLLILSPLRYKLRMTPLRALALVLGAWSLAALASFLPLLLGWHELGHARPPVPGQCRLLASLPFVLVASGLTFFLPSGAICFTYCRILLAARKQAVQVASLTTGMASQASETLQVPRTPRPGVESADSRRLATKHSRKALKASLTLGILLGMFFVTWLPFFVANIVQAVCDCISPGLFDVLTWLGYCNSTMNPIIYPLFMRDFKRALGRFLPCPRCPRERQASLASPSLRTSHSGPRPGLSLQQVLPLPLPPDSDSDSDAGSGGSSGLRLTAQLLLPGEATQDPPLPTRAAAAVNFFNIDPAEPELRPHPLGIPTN
pKi: −log10 of the molar value.
Quantity measured: pKi

COc1ccccc1OCCNC[C@H](O)COc1ccc(O)cc1.COc1ccccc1OCCNC[C@H](O)COc1ccc(O)cc1.O=C(O)/C=C/C(=O)O [STD-101-D1]: 5.75

---

target: ADRB1 (Homo sapiens); assay: cAMP assay (HTRF), ADRB1; format: cell-based; set-up: expressed in transfected cells; host or cells: HEK-293; conditions: HEK-293 cells; geometric mean (95% confidence limits) of at least two experiments; read-out: cAMP pathway ADRB1 EC50
pEC50: −log10 of the molar value.
The following compounds are shown together with reported pEC50 values.
Quantity measured: pEC50

N#Cc1cc(OC[C@@H](O)CNCCNC(=O)N2CCOCC2)ccc1O: 8.15
COc1ccc(CCNCC(O)COc2ccc(O)c(O)c2)cc1OC (centres unmarked) [RO363, reference compound]: 8.10

---

molecular target: UniProt Q99720
Sequence (Q99720 whole entry, species assumed): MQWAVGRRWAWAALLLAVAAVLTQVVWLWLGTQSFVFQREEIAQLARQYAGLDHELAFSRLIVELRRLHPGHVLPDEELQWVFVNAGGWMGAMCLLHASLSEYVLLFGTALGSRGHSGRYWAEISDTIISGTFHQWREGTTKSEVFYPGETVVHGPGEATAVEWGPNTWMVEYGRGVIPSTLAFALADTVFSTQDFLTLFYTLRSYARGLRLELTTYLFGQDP
pKi: −log10 of the molar value.
Quantity measured: pKi

COc1ccccc1OCCNC[C@H](O)COc1ccc(O)cc1.COc1ccccc1OCCNC[C@H](O)COc1ccc(O)cc1.O=C(O)/C=C/C(=O)O [STD-101-D1]: 6.84

---

Target: ADR- Alpha 1B (Homo sapiens, UniProt P35368)
Sequence (P35368 1-520): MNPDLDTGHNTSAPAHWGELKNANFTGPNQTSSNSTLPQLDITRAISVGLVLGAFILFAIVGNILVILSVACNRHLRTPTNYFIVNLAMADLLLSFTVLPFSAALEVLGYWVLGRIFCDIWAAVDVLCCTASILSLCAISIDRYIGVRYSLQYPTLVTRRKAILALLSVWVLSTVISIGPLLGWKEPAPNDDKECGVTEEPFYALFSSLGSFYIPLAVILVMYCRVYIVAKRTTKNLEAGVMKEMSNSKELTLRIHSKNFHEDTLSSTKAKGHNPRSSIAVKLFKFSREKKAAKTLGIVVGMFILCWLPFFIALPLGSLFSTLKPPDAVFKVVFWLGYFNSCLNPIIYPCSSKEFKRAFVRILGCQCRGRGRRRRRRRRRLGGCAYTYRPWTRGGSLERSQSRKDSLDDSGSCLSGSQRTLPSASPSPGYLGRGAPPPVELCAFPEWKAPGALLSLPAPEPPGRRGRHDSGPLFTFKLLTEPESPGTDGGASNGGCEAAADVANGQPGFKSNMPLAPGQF
Quantity measured: Ki

COc1ccccc1OCCNC[C@H](O)COc1ccc(O)cc1.COc1ccccc1OCCNC[C@H](O)COc1ccc(O)cc1.O=C(O)/C=C/C(=O)O [STD-101-D1]: 267 nM

---

biological target: ADRB1 (Homo sapiens, UniProt P08588); test: β-arrestin assay (PathHunter enzyme fragment complementation); format: cell-based; design: host or cells: CHO-K1 (PathHunter); settings: CHO-K1-ADRB1 PathHunter cells; read-out: β-arrestin pathway ADRB1 EC50
Sequence (P08588 whole entry, the tested form may be a part): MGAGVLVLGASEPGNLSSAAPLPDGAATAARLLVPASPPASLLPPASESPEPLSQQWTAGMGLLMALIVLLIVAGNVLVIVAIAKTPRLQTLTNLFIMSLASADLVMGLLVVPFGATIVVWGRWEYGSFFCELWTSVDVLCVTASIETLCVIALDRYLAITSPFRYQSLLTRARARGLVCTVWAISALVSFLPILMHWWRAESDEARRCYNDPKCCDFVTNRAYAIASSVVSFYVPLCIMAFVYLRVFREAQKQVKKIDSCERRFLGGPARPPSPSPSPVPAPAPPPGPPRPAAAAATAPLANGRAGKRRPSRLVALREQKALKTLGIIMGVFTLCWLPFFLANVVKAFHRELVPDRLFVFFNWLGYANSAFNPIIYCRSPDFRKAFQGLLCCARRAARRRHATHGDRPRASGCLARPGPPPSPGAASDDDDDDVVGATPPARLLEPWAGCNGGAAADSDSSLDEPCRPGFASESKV
pEC50: −log10 of the molar value.
Quantity measured: pEC50

COc1ccc(CCNCC(O)COc2ccc(O)c(O)c2)cc1OC (stereo not shown) [RO363, reference compound]: 7.49

---

target: UniProtKB P25100
Sequence (P25100 whole entry): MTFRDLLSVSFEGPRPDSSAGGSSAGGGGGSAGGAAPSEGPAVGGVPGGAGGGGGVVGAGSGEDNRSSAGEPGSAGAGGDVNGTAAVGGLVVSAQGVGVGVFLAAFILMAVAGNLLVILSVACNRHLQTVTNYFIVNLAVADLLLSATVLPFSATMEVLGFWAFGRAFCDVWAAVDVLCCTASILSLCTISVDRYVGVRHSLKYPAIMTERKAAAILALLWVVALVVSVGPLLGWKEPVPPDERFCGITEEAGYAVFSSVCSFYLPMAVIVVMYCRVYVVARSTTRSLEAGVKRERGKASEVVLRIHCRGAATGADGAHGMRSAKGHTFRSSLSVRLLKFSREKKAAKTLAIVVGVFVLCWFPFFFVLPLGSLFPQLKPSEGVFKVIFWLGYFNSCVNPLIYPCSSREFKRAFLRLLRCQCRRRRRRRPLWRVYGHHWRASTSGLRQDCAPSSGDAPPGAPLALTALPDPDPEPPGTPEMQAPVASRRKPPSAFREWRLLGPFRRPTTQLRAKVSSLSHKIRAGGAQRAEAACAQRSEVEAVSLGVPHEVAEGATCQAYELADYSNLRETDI
pKi: −log10 of the molar value.
Quantity measured: pKi

COc1ccccc1OCCNC[C@H](O)COc1ccc(O)cc1.COc1ccccc1OCCNC[C@H](O)COc1ccc(O)cc1.O=C(O)/C=C/C(=O)O [STD-101-D1]: 7.60
